Listed here are compounds together with their documented pIC50.
tested on: Baf3-WT; assay: Cellular assay (Alamar Blue), Baf3-WT with mouse IL-3; assay type: cell-based; settings: mouse IL-3 at 5 ng/ml, 72 hr
pIC50: −log10 of the molar value.

See these solved cases before continuing.
structure_notation=C[C@H](Nc1cncc(-c2cccc(S(C)(=O)=O)c2)n1)c1cccc(NC(=O)c2cccc(C(F)(F)F)c2)c1 system_tested=Baf3-WT reported_result="> 5.00"
structure_notation=Cc1cncc(C(=O)Nc2cccc([C@H](C)Nc3cncc(-c4ccc(N5CCOCC5)cc4)n3)c2)c1 system_tested=Baf3-WT reported_result="< 5.00"
structure_notation=C[C@H](Nc1cncc(-c2cccc(N3CCOCC3)c2)n1)c1cccc(NC(=O)c2cccc(C(F)(F)F)c2)c1 system_tested=Baf3-WT reported_result="< 5.00"
structure_notation=Cc1cncn1-c1cncc(N[C@@H](C)c2cccc(NC(=O)c3cccc(C(F)(F)F)c3)c2)n1 system_tested=Baf3-WT reported_result="< 5.00"

Q: Given the entry C[C@H](Nc1cncc(-c2ccc(NS(C)(=O)=O)cc2)n1)c1cccc(NC(=O)c2cccc(C(F)(F)F)c2)c1 , report its measured pIC50.
Ans: > 5.00

Q: Given the entry Cc1cccc(C(=O)Nc2cccc([C@H](C)Nc3cncc(-c4ccc(S(N)(=O)=O)cc4)n3)c2)c1 , report its measured pIC50.
Ans: < 5.00

Q: Given the entry Cc1cncc(C(=O)Nc2cccc([C@H](C)Nc3cncc(Br)c3)c2)c1 , report its measured pIC50.
Ans: < 5.00
